- System: SF-539 CNS
- Test: NCI tumour cell line growth inhibition, 48 h
Assign Fulfilled to entries whose TGI meets or exceeds 4 µM; assign Not fulfilled to the rest.

Use these answered entries as a reference point.
## Input For this compound, is measured TGI 4 µM or higher? COc1cc(C(=O)c2c(-c3ccccc3)oc3c(OC)cccc23)cc(OC)c1O
## Output Not fulfilled

## Input # check: TGI of CC1(F)C=CC(=O)C=C1 is greater than or equal to 4 µM
## Output Fulfilled

## Input Say whether Cc1cccc2c1CC(C1OC(=O)c3ccccc31)C2=O (stereo not given) shows TGI of 4 µM or more.
## Output Fulfilled

## Input Say whether COc1ccc(-c2c(-c3cc(OC)c(OC)c(OC)c3)nc3sc(C4CC4)nn23)cc1OC shows TGI of 4 µM or more.
## Output Fulfilled

## Input Does TGI meet or surpass 4 µM for Cc1cccc(C(C)(C)C)c1NC(=O)CCl ?
## Output Fulfilled

## Input Dear colleague, could you confirm whether C=C1C(=O)O[C@@H]2O[C@@]3(C)CC[C@H]4[C@H](C)CC[C@@H]1[C@@]24O3 has TGI at or above 4 µM?
## Output Fulfilled

## Input Is it the case that C[n+]1c2ccccc2n2c3ccccc3c(NCCCN3CCOCC3)c(C#N)c21 has TGI reaching or exceeding 4 µM?
## Output Not fulfilled

## Input Check this compound for TGI at or above 4 µM: COC(=O)[C@@H]1C[C@@]23CCCN4CC[C@@]5(c6cccc(OC)c6N(C=O)[C@]15CC2)[C@@H]43
## Output Fulfilled

## Input Quick check, TGI >= 4 µM? C[C@]1(O)CC[C@H]2[C@@H]3CCc4cc(O)ccc4[C@H]3CC[C@@]21C
## Output Not fulfilled

Further cases:
## Input Does TGI meet or surpass 4 µM for O=[N+]([O-])c1ccc(C(Br)c2ccc([N+](=O)[O-])cc2)cc1 ?
## Output Fulfilled
